biological target: hERG (Homo sapiens, UniProt Q12809); assay: cell-based; settings: (-LOG10(IC50), µM)
Sequence (Q12809 whole entry): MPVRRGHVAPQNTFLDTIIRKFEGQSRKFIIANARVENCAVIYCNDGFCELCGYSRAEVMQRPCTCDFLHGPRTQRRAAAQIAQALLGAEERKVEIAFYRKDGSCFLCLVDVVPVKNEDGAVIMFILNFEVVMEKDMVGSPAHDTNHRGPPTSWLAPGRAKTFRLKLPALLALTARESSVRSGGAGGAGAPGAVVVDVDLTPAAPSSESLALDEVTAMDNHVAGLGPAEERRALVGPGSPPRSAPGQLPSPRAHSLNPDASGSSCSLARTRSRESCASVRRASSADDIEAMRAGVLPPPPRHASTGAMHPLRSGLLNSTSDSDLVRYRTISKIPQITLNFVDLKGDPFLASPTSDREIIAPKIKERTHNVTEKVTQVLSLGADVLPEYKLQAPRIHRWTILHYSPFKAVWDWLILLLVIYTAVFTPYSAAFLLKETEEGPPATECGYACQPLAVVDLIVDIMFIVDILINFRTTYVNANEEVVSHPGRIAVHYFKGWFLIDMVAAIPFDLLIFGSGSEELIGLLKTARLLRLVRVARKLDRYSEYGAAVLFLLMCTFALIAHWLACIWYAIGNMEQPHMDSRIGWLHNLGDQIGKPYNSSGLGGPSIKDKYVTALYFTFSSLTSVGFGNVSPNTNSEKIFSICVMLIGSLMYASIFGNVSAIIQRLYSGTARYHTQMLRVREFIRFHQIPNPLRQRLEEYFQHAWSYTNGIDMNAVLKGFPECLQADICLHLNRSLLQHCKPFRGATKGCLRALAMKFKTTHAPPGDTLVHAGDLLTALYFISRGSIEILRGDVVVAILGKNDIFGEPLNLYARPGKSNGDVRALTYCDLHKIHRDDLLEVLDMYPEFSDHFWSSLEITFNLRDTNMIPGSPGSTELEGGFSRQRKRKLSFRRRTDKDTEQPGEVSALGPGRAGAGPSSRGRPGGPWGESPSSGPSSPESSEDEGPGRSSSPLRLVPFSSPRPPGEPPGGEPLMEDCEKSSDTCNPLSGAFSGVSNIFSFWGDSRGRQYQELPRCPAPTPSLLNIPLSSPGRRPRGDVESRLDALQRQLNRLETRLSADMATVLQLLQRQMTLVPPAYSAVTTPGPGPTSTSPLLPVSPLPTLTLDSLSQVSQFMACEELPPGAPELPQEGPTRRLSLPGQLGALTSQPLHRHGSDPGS
Where a name gives a salt, the structure may show the parent alone.
Here, each record is paired with measured log10 of IC50 data.
Heads up: the numbers are on a log10 scale; they represent IC50 in µM.

Compound | log10 of IC50
CCN(CC)CCOc1ccc(C(O)(Cc2ccc(Cl)cc2)c2ccc(C)cc2)cc1 (centres unmarked) | 0.05
COC(=O)C(C)Oc1ccc(Oc2ncc(C(F)(F)F)cc2Cl)cc1 (centres unmarked) | 1.55
ClCCCN1CCN(c2cccc(Cl)c2)CC1 | 1.00
CN(C)c1ccc(C(=O)c2ccc(N(C)C)cc2)cc1 | 1.76
CCN(CC)CCCN(c1ccccc1)C1Cc2ccccc2C1 [Aprindine hydrochloride] | 0.45
CCOC(CN1CCN(CC(C)C(=O)c2ccccc2)CC1)c1ccccc1 (centres unmarked) [Eprazinone dihydrochloride] | 0.97
COC(=O)C(C)Oc1ccc(Oc2ccc(Cl)cc2Cl)cc1 (racemic) [(+-)-Diclofop-methyl] | 1.66

Could you now look at the following compound, please?
So what's the measured log10 of IC50 for this one? COc1cc2c(cc1OC)C(C(C(=O)N(CCc1ccc(OC)c(OC)c1OC)CCc1ccc(OC)c(OC)c1OC)c1ccccc1)=NCC2 (centres unmarked) [Pinokalant hydrochloride]
1.30
